# experimental system: plasma kallikrein (Homo sapiens, UniProt P03952)
# Construct: from tissue; host or cells: sodium citrate collected human plasma
# Sequence (P03952 391-638 limits assumed): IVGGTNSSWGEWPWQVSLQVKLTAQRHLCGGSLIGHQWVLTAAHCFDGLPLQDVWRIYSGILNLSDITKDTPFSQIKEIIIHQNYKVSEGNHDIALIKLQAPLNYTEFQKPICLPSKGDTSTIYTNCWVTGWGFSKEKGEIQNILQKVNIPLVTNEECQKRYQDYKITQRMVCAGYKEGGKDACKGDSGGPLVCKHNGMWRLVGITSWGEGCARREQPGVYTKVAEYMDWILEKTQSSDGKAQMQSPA
# Sequence (P03952 20-390 partner limits assumed): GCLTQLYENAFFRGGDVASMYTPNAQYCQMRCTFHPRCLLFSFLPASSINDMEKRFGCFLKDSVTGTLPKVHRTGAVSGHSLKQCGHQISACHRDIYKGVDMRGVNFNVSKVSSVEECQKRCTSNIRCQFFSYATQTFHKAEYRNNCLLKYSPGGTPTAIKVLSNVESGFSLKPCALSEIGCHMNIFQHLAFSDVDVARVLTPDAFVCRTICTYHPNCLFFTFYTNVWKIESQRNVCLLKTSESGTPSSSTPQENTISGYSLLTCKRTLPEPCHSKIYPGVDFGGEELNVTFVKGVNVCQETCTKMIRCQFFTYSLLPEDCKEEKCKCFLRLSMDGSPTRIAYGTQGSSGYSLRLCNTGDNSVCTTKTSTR
# protocol notes: Neat human plasma assay (fluorogenic peptide), contact pathway-activated plasma
# Assay type: biochemical
# condition description: citrated human plasma, 10 nM human FXIIa activation, 100 μM PFR-AMC, room temperature; read-out: Human Plasma Assay: IC90
Recorded IC90 by entry

Please review the entries below; each comes with its answer.
{"molecule": "Cc1ccnc([C@H]2C[C@@H]2C(=O)Nc2cc(NCc3cc4cc(C5CC5)cc(N5CC(=O)N(C)C5=O)n4n3)ncn2)n1", "observed property": "IC90", "experimental value": "< 500 nM"}
{"molecule": "CN1CCN(c2cc(C3CC3)nn3cc(CNc4ccnc(NC(=O)[C@H]5C[C@@H]5c5cccc(Cl)c5)c4)nc23)CC1", "observed property": "IC90", "experimental value": "500 to 5000 nM"}
{"molecule": "Cc1ccnc([C@H]2C[C@@H]2C(=O)Nc2ncc(F)c(NCc3cn4cc(C5CC5)nc(N5CC(=O)N(C)C5=O)c4n3)n2)n1 (racemic)", "observed property": "IC90", "experimental value": "< 500 nM"}
{"molecule": "O=C(Nc1cc(NCc2nc3ccc(C4CC4)nn3n2)ccn1)[C@H]1C[C@@H]1c1cccc(Cl)c1", "observed property": "IC90", "experimental value": "5000 to 65000 nM"}
{"molecule": "Cc1ccnc([C@H]2C[C@@H]2C(=O)Nc2cc(N3C[C@@H](O)C[C@@H]3c3cn4cc(C5CC5)cnc4n3)ncn2)c1 (single isomer, unassigned)", "observed property": "IC90", "experimental value": "500 to 5000 nM"}

Next molecule, please.
Exercise: Hi! What's the reported IC90 for Cc1ccnc([C@H]2C[C@@H]2C(=O)Nc2cc(NCc3ccc4ncc(C5CC5)cc4c3)ncn2)n1 on plasma kallikrein (Homo sapiens, UniProt P03952)?
Solution: < 500 nM

====

# experimental system: human activated kallikrein enzyme (Homo sapiens)
# Sequence (P03952 391-638 limits assumed): as the sequence (P03952 391-638 limits assumed) above
# Sequence (P03952 20-390 partner limits assumed): as the sequence (P03952 20-390 partner limits assumed) above
# protocol notes: Inhibition of human activated plasma kallikrein, fluorogenic peptide substrate (PFR-AMC), 500 pM enzyme format
# condition description: 500 pM activated kallikrein, 30 min preincubation, 10 min reaction, room temperature, read-out: Primary Dose Response Assay: Average EC50
Recorded EC50 by entry

Please review the entries below; each comes with its answer.
{"compound": "Cc1cnn(-c2cc(COc3cnnc(NC(=O)[C@H]4C[C@@H]4c4cccc(Cl)c4)c3)ccn2)c1 (racemic) [Example 11]", "EC50": "> 500 nM"}
{"compound": "CN1CCN(c2cc(C3CC3)cc3cc(CNc4cc(NC(=O)[C@H]5C[C@@H]5c5cccc(Cl)c5)ncn4)nn23)CC1 [Example 53]", "EC50": "< 2.5 nM"}
{"compound": "CN1CCN(c2cc(C3CC3)nn3cc(CNc4cc(NC(=O)[C@H]5C[C@@H]5c5cccc(Cl)c5)ncn4)nc23)CC1 [Example 39]", "EC50": "< 2.5 nM"}

Next compound, please.
Exercise: Entry Cc1ccnc([C@H]2C[C@@H]2C(=O)Nc2cc(NCc3nc4ncc(C5CC5)cn4n3)ncn2)n1 (racemic) [Example 78] : reported EC50 = ?
Solution: 2.5 to 25 nM

====

# experimental system: plasma kallikrein (Homo sapiens, UniProt P03952)
# Construct: from tissue; host or cells: sodium citrate collected human plasma
# protocol notes: Neat human plasma assay (fluorogenic peptide), contact pathway-activated plasma
# Type: biochemical
# condition description: citrated human plasma, 10 nM human FXIIa activation, 100 μM PFR-AMC, room temperature; read-out: Human Plasma Assay: IC90
observed property: IC90

Please review the entries below; each comes with its answer.
{"compound": "O=C(Nc1cc(NCc2nc3ncc(C4CC4)cn3n2)ccn1)[C@H]1C[C@@H]1c1cccc(Cl)c1 [Example 31]", "IC90": "500 to 5000 nM"}
{"compound": "Cc1ccnc([C@H]2C[C@@H]2C(=O)Nc2nncc(N[C@H](C)c3cc4cc(C5CC5)cc(N5CC6CC6C5=O)n4n3)n2)n1 (stereo partly drawn) [Example 105]", "IC90": "< 500 nM"}
{"compound": "O=C(Nc1cc(N2C[C@@H](O)C[C@@H]2c2cn3nc(C4CC4)ccc3n2)ncn1)[C@H]1C[C@@H]1c1cc(Cl)ccn1 [Example 61]", "IC90": "500 to 5000 nM"}
{"compound": "Cc1ccnc([C@H]2C[C@@H]2C(=O)Nc2cc(NCc3cc(N4CC(=O)N(C)C4=O)c4ncc(C5CC5)cc4c3)ncn2)n1 [Example 98]", "IC90": "< 500 nM"}
{"compound": "O=C(Nc1nccc2nn(Cc3cn4nc(C5CC5)ccc4n3)cc12)[C@H]1C[C@@H]1c1cccc(Cl)c1 [Example 35]", "IC90": "500 to 5000 nM"}

Exercise: Hi! What's the reported IC90 for CN1C(=O)CN(c2cc(C3CC3)cc3cc(CNc4cc(NC(=O)[C@H]5C[C@@H]5c5cc(Cl)ccn5)ncn4)nn23)C1=O (racemic) [Example 57] on plasma kallikrein (Homo sapiens, UniProt P03952)?
Solution: 500 to 5000 nM

====

# experimental system: plasma kallikrein (Homo sapiens)
# Construct: from tissue; host or cells: sodium citrate collected human plasma
# protocol notes: Neat human plasma assay (fluorogenic peptide), contact pathway-activated plasma
# Assay type: biochemical
# condition description: citrated human plasma, 10 nM human FXIIa activation, 100 μM PFR-AMC, room temperature; read-out: Human Plasma Assay: IC90
observed property: IC90

{"smiles notation": "O=C(Nc1cc(N2C[C@@H](O)C[C@@H]2c2cn3nc(C4CC4)ccc3n2)ncn1)[C@H]1C[C@@H]1c1cccc(Cl)c1", "experimental system": "plasma kallikrein (Homo sapiens)", "IC90": "500 to 5000 nM"}
{"smiles notation": "O=C(Nc1cc(NCc2cn3cc(C4CC4)cnc3n2)ncn1)[C@H]1C[C@@H]1c1cc(Cl)ccn1", "experimental system": "plasma kallikrein (Homo sapiens)", "IC90": "500 to 5000 nM"}

Next molecule, please.
Exercise: Hi! What's the reported IC90 for Cc1ccnc([C@H]2C[C@@H]2C(=O)Nc2cc(N(C)Cc3nc4cc(C5CC5)cc(N5CC(=O)N(C)C5=O)c4[nH]3)nc(C)n2)n1 on plasma kallikrein (Homo sapiens)?
Solution: 500 to 5000 nM

====

# experimental system: human activated kallikrein enzyme (Homo sapiens)
# protocol notes: Inhibition of human activated plasma kallikrein, fluorogenic peptide substrate (PFR-AMC), 500 pM enzyme format
# condition description: 500 pM activated kallikrein, 30 min preincubation, 10 min reaction, room temperature, read-out: Primary Dose Response Assay: Average EC50
pEC50: −log10 of the molar value.
Recorded pEC50 by entry

{"compound": "O=C(Nc1cc(OCc2ccc(Cn3cccn3)cc2)cnn1)C1CC12C(=O)Nc1ccccc12 (stereo not drawn)", "experimental system": "human activated kallikrein enzyme (Homo sapiens)", "pEC50": "< 6.30"}
{"compound": "O=C(Nc1cc(NCc2ccc(Cn3ccccc3=O)cc2)cnn1)[C@H]1C[C@@H]1c1cccc(Cl)c1 (racemic) [Example 14]", "experimental system": "human activated kallikrein enzyme (Homo sapiens)", "pEC50": "> 8.60"}
{"compound": "O=C(Nc1cc(NCc2cc3cc(C4CC4)cnc3s2)ccn1)[C@H]1C[C@@H]1c1cccc(Cl)c1", "experimental system": "human activated kallikrein enzyme (Homo sapiens)", "pEC50": "> 8.60"}
{"compound": "O=C(Nc1cn(Cc2ccc(Cn3cccn3)cc2)cn1)[C@H]1C[C@@H]1c1cccc(Cl)c1 (racemic)", "experimental system": "human activated kallikrein enzyme (Homo sapiens)", "pEC50": "< 6.30"}
{"compound": "CN1C(=O)CN(c2cc(C3CC3)nn3cc(CNc4cc(NC(=O)[C@H]5C[C@@H]5c5cc(Cl)ccn5)ncn4)nc23)C1=O", "experimental system": "human activated kallikrein enzyme (Homo sapiens)", "pEC50": "> 8.60"}
{"compound": "O=C(Nc1cc(NCc2cc3cc(C4CC4)cc(N4CCOC4=O)n3n2)ncn1)[C@H]1C[C@@H]1c1cccc(Cl)c1", "experimental system": "human activated kallikrein enzyme (Homo sapiens)", "pEC50": "> 8.60"}

Exercise: Entry O=C(Nc1cc(NCc2nc3ncc(C4CC4)cn3n2)ccn1)[C@H]1C[C@@H]1c1cccc(Cl)c1 : reported pEC50 = ?
Solution: > 8.60

====

Recorded IC90 by entry
# experimental system: plasma kallikrein (Homo sapiens, UniProt P03952)
# Construct: from tissue; host or cells: sodium citrate collected human plasma
# protocol notes: Neat human plasma assay (fluorogenic peptide), contact pathway-activated plasma
# Format: biochemical
# condition description: citrated human plasma, 10 nM human FXIIa activation, 100 μM PFR-AMC, room temperature; read-out: Human Plasma Assay: IC90

Exercise: Entry O=C(Nc1cc(N2C[C@@H](O)C[C@@H]2c2cn3cc(C4CC4)cnc3n2)ncn1)[C@H]1C[C@@H]1c1cc(Cl)ccn1 : reported IC90 = ?
Solution: < 0.5 µM
